- METHOD_DESCRIPTION: HPLC quantitation of compound and metabolite concentration in rat serum and liver
- RECORDED_CONDITIONS: in vivo, po, 0.3% in diet, 4 days, mean N = 5, read-out: Serum Parent (parent compound concentration)
ASSAY_ENDPOINT: log10 concentration at 96 h (log10 of the value in ng/mL)
Remember, log10 of concentration at 96 h, in ng/mL.

// worked examples, log10 concentration at 96 h included
COMPOUND | log10 concentration at 96 h
CC(C)=CCC[C@@H](C)CCOc1cc(C(C)(C)C)c(O)c(C(C)(C)C)c1 | 4.21
CC(C)CCCC(C)CCOc1cc(C(C)(C)C)c(O)c(C(C)(C)C)c1 (centres unmarked) | 4.52
CC(C)=CCC[C@H](C)CCSc1ccc(O)c(C(C)(C)C)c1 | 3.43
CC(CCCC(C)(C)O)CCSc1cc(C(C)(C)C)c(O)c(C(C)(C)C)c1 (centres unmarked) | 3.61

So for "CC(C)=CCC[C@H](C)CCOc1cc(C(C)(C)C)c(O)c(C(C)(C)C)c1" , the logged log10 concentration at 96 h turned out to be 4.34

====

- Test system: Male Sprague-Dawley Rats
- METHOD_DESCRIPTION: Serum clinical chemistries in male Sprague-Dawley rats
- Format: in vivo
- RECORDED_CONDITIONS: rat serum, 0.3% in diet, 4 days, N = 5
Recorded AST (aspartate aminotransferase), percent of control, one value per entry.
Respond numerically; units are % and should not be typed.

COMPOUND | NUMERIC_READOUT
CC(C)=CCC[C@H](C)CCOc1cc(C(C)(C)C)c(O)cc1C(C)(C)C [107,059] | 140
CC(CCCC(C)(C)O)CCSc1cc(C(C)(C)C)c(O)c(C(C)(C)C)c1 (stereo not drawn) [104,487] | 124

Turning now to a further compound:
Looking up CC(C)CCCC(C)CCOc1cc(C(C)(C)C)c(O)c(C(C)(C)C)c1 (stereo not drawn) [104,102] , I found its AST (aspartate aminotransferase), percent of control recorded as 82

====

- Test system: Male Sprague-Dawley Rats
- METHOD_DESCRIPTION: Serum clinical chemistries in male Sprague-Dawley rats
- Format: in vivo
- RECORDED_CONDITIONS: rat serum, 0.3% in diet, 4 days, N = 5
ASSAY_ENDPOINT: ALP (alkaline phosphatase), percent of control (%)
State the answer as a number, implicitly in %.

The measured ALP (alkaline phosphatase), percent of control associated with CC(C)=CCCC(C)CCSc1cc(C(C)(C)C)c(O)c(C(C)(C)C)c1 (centres unmarked) reads 125

What the record says about CC(C)=CCCC(C)CCOc1ccc(O)c(C(C)(C)C)c1 (centres unmarked) : ALP (alkaline phosphatase), percent of control is 76

// field: ALP (alkaline phosphatase), percent of control; key: CC(CCCC(C)(C)O)CCSc1cc(C(C)(C)C)c(O)c(C(C)(C)C)c1 (centres unmarked) ; value = 137

====

Below: a set of entries, each annotated with reported food (grams eaten per day per rat), percent of control.
- METHOD_DESCRIPTION: Animal parameters (food, body weight, liver weight, mortality) in male Sprague-Dawley rats
- Format: in vivo
- RECORDED_CONDITIONS: in vivo
Number in %, nothing else.

Take a look at these entries with their results.
COMPOUND | VALUE_UNITS | NUMERIC_READOUT
CC(C)=CCC[C@H](C)CCOc1ccc(O)c(C(C)(C)C)c1 | % | 95
CC(C)CCCC(C)CCOc1ccc(O)c(C(C)(C)C)c1 (stereo not drawn) | % | 76
CC(C)=CCCC(C)CCSc1cc(C(C)(C)C)c(O)c(C(C)(C)C)c1 (stereo not drawn) | % | 105
CC(C)=CCC[C@@H](C)CCOc1cc(C(C)(C)C)c(O)c(C(C)(C)C)c1 | % | 95
CC(C)=CCC[C@H](C)CCOc1cc(C(C)(C)C)c(O)cc1C(C)(C)C | % | 95

The measured food (grams eaten per day per rat), percent of control associated with CC(C)=CCCC(C)CCOc1ccc(O)c(C(C)(C)C)c1 (stereo not drawn) reads 95

====

- METHOD_DESCRIPTION: HPLC quantitation of compound and metabolite concentration in rat serum and liver
- RECORDED_CONDITIONS: in vivo, po, 0.3% in diet, 4 days, mean N = 5, read-out: Serum Parent (parent compound concentration)
ASSAY_ENDPOINT: concentration at 96 h (ng/mL)
Report the value in ng/mL with no unit label.

MOLECULE | ASSAY_ENDPOINT | NUMERIC_READOUT
CC(C)=CCCC(C)CCSc1cc(C(C)(C)C)c(O)c(C(C)(C)C)c1 (stereo not shown) | concentration at 96 h | 8700
CC(C)CCCC(C)CCOc1ccc(O)c(C(C)(C)C)c1 (stereo not shown) | concentration at 96 h | 6900
CC(C)=CCC[C@H](C)CCOc1ccc(O)c(C(C)(C)C)c1 | concentration at 96 h | 1400

Now consider a different molecule.
Item: CC(C)=CCCC(C)CCOc1ccc(O)c(C(C)(C)C)c1 (stereo not shown) | concentration at 96 h: 1100

====

- METHOD_DESCRIPTION: HPLC quantitation of compound and metabolite concentration in rat serum and liver
- RECORDED_CONDITIONS: in vivo, po, 0.3% in diet, 4 days, mean N = 5, read-out: Liver Parent (parent compound concentration)
Under this convention, 1.0 denotes concentration at 96 h strictly below 50000 ng/g and 0.0 denotes concentration at 96 h at or above 50000 ng/g.

Example results:
COMPOUND | CATEGORY_LABEL
CC(C)CCCC(C)CCOc1cc(C(C)(C)C)c(O)c(C(C)(C)C)c1 (stereo not drawn) | 0.0
CC(C)=CCCC(C)CCSc1cc(C(C)(C)C)c(O)c(C(C)(C)C)c1 (stereo not drawn) | 1.0
CC(C)CCCC(C)CCOc1ccc(O)c(C(C)(C)C)c1 (stereo not drawn) | 1.0
CC(C)=CCC[C@@H](C)CCOc1cc(C(C)(C)C)c(O)c(C(C)(C)C)c1 | 0.0
CC(CCCC(C)(C)O)CCSc1cc(C(C)(C)C)c(O)c(C(C)(C)C)c1 (stereo not drawn) | 1.0

## Input Threshold test, concentration at 96 h < 50000 ng/g: "CC(C)=CCC[C@H](C)CCOc1cc(C(C)(C)C)c(O)c(C(C)(C)C)c1"
## Output 0.0

====

- METHOD_DESCRIPTION: Animal parameters (food, body weight, liver weight, mortality) in male Sprague-Dawley rats
- Assay type: in vivo
- RECORDED_CONDITIONS: 0.3% in diet, 4 days, N = 5
ASSAY_ENDPOINT: food (grams eaten per day per rat), percent of control
Entry format: amount then unit.

COMPOUND | RESULT
CC(CCCC(C)(C)O)CCSc1cc(C(C)(C)C)c(O)c(C(C)(C)C)c1 (stereo not shown) [104,487] | 90%

Documented food (grams eaten per day per rat), percent of control of CC(C)=CCC[C@H](C)CCSc1ccc(O)c(C(C)(C)C)c1 [103,714] : 102%

Documented food (grams eaten per day per rat), percent of control of CC(C)=CCC[C@H](C)CCOc1cc(C(C)(C)C)c(O)c(C(C)(C)C)c1 [103,294] : 108%

Reported food (grams eaten per day per rat), percent of control ( CC(C)CCCC(C)CCOc1cc(C(C)(C)C)c(O)c(C(C)(C)C)c1 (stereo not shown) [104,102] ) = 92%

====

Quick list: ALT (alanine aminotransferase), percent of control per entry.
- Test system: Male Sprague-Dawley Rats
- METHOD_DESCRIPTION: Serum clinical chemistries in male Sprague-Dawley rats
- Format: in vivo
- RECORDED_CONDITIONS: rat serum, 0.3% in diet, 4 days, N = 5
Entry rule: numbers only, all in %.

COMPOUND | TARGET_SYSTEM | VALUE_UNITS | NUMERIC_READOUT
CC(C)CCCC(C)CCOc1cc(C(C)(C)C)c(O)c(C(C)(C)C)c1 (centres unmarked) | Male Sprague-Dawley Rats | % | 114

Record "CC(C)=CCC[C@H](C)CCOc1ccc(O)c(C(C)(C)C)c1" , field ALT (alanine aminotransferase), percent of control: 119

response.value for CC(C)=CCCC(C)CCSc1cc(C(C)(C)C)c(O)c(C(C)(C)C)c1 (centres unmarked) (field: ALT (alanine aminotransferase), percent of control) = 117

====

- METHOD_DESCRIPTION: Animal parameters (food, body weight, liver weight, mortality) in male Sprague-Dawley rats
- Format: in vivo
- RECORDED_CONDITIONS: rat, 0.3% in diet, 4 days, N = 5
# body wt., percent of control annotations
Write the number in % without appending the unit.

Examples from the recorded data:
COMPOUND | NUMERIC_READOUT
CC(CCCC(C)(C)O)CCSc1cc(C(C)(C)C)c(O)c(C(C)(C)C)c1 (stereo not shown) | 95
CC(C)=CCC[C@H](C)CCOc1cc(C(C)(C)C)c(O)c(C(C)(C)C)c1 | 101
CC(C)=CCC[C@H](C)CCOc1cc(C(C)(C)C)c(O)cc1C(C)(C)C | 95

The value of body wt., percent of control measured for the compound CC(C)=CCCC(C)CCOc1ccc(O)c(C(C)(C)C)c1 (stereo not shown) turned out to be 101

Recorded result, CC(C)CCCC(C)CCOc1cc(C(C)(C)C)c(O)c(C(C)(C)C)c1 (stereo not shown) , body wt., percent of control: 97

body wt., percent of control reported for this compound "CC(C)=CCC[C@H](C)CCSc1ccc(O)c(C(C)(C)C)c1" : 103

Kindly note the recorded body wt., percent of control for CC(C)=CCCC(C)CCSc1cc(C(C)(C)C)c(O)c(C(C)(C)C)c1 (stereo not shown) , which is 100
